Tested on: NCI-H23 lung
Test: NCI-60 one-dose screen, 48 h
Conditions: 10 µM unless noted
Method: Growth inhibition of the NCI-H23 human Non-Small Cell Lung tumor cell line is measured as a screen for anti-cancer activity. Cells are grown in 96 well plates and exposed to the test compound for 48 hours. Compounds are tested at a single concentration, which is 10^-5 M for most compounds. The reported endpoint is percent growth (GI% or GIPRCNT), where numbers from 0 - 100% represent growth inhibition, and numbers from -100% - 0 represent cell death. […]
About 83,000 compounds went through this panel and 20% of them were active in at least one assay; those are over-represented in the sample as a whole. Calls of active or inactive are those of the source. Rule for the calls: active = growth percent below 10; inactive = the rest.
Respond only with the outcome that fits, drawn from yes (active), no (inactive)

A selection of reference data follows.
- COMPOUND: "CN(C)CCCOc1ccc2c(c1)c(C(=O)C(=O)NCCO)cn2Cc1ccccc1"
  DISCRETE_LABEL: "no"
- COMPOUND: "COc1ccc(C(=O)c2sc3nc4c(cc3c2N)N2CCC4CC2)cc1OC"
  DISCRETE_LABEL: "no"
- COMPOUND: "O=[As](O)(O)c1ccccc1[As](=O)(O)O"
  DISCRETE_LABEL: "no"

Q. Call for entry CN1CC(=O)N(O)C1(C)c1cccnc1 (stereo unspecified) :
A. no

Q. Call for entry O=C(c1ccccc1O)c1[nH]c(Cl)c(Cl)c1-n1c(C(=O)c2ccccc2O)cc(Cl)c1Cl :
A. yes

Q. Call for entry O=C1C=C(N2C3C4CCC(C4)C32)C(=O)C=C1c1ccccc1 (stereo unspecified) :
A. no

Q. Call for entry CCCCCCCCCCCCCCCCCC1OC[C@H](COC(=O)O[C@@H](C(=O)O[C@H]2C[C@@]3(O)[C@@H](OC(=O)c4ccccc4)[C@@H]4[C@]5(OC(C)=O)CO[C@@H]5C[C@H](O)[C@@]4(C)C(=O)[C@H](OC(C)=O)C(=C2C)C3(C)C)[C@@H](NC(=O)c2ccccc2)c2ccccc2)O1 (stereo partly specified) :
A. no

Q. Call for entry CN(C)C(=O)Oc1ccccc1 :
A. no

Q. Call for entry COc1cc(NC(C)CCCNC2CN3CCC2CC3)c2ncccc2c1 (stereo unspecified) :
A. no

Q. Call for entry Clc1ccc(N2COOC3(OOC2)C2CC4CC(C2)CC3C4)cc1 :
A. no

Q. Call for entry O=C(Nc1ccncc1F)c1cn(CC2CC2)c2ccccc12 :
A. no

====

System: SK-OV-3 ovarian
Assay: NCI-60 one-dose screen, 48 h
Conditions: 10 µM unless noted
Compounds without any hit were thinned out: in the full panel of roughly 83,000, 20% have a hit. Activity calls are given as the source filed them. The calls were made as follows: active = growth percent below 10; inactive = the rest.
Respond only with the outcome that fits, drawn from active, inactive

Q. Call for entry O=C(CN1CCN(C(=O)c2ccco2)CC1)Nc1ccc(Cl)cc1C(=O)c1ccccc1Cl :
A. inactive

====

Test system: HOP-62 NSCLC
Assay: NCI-60 one-dose screen, 48 h (100 = growth as untreated, 0 = no growth, -100 = all killed)
Details: 10 µM unless noted
The panel holds about 83,000 compounds, 20% with a hit somewhere; the sample as a whole holds those more often.
REPORTED_PROPERTY: growth (%)
Value expressed in %; do not type the unit.

As a guide, the following entries are already answered.
- COMPOUND: "CCC(O)(CN)c1ccccc1 (stereo unspecified)"
  TARGET_OF_ASSAY: "HOP-62 NSCLC"
  EXPERIMENTAL_VALUE: 97.3
- COMPOUND: "N#C[S-].[Au+].c1ccc(CN2[CH-]N(Cc3ccccc3)C(c3ccccc3)=C2c2ccccc2)cc1"
  TARGET_OF_ASSAY: "HOP-62 NSCLC"
  EXPERIMENTAL_VALUE: 16
- COMPOUND: "Cc1ccc(C(Cc2ccccc2)NCCO)cc1 (stereo unspecified)"
  TARGET_OF_ASSAY: "HOP-62 NSCLC"
  EXPERIMENTAL_VALUE: 80.3

Q. // lookup growth for O=NN1CCCc2cccc(O)c21
A. 31.9

Q. // lookup growth for CN(C)CCCOc1ccc2c(c1)c(C(=O)C(=O)NCCO)cn2Cc1ccccc1
A. 100

Q. // lookup growth for O=C(Nc1ccc([As]=[As]c2ccc(NC(=O)c3ccccc3)cc2)cc1)c1ccccc1 (stereo unspecified)
A. -96.7

Q. // lookup growth for CS(=O)(=O)CCN1CC2CCCC(C2)C1
A. 103

Q. // lookup growth for N#CC1(c2ccccc2)CCN(Cc2ccccc2)CC1
A. 106

Q. // lookup growth for Fc1ccc2c(c1)c(-c1nc(-c3c[nH]c4ncccc34)cs1)cn2CCN1CCOCC1
A. 39.3

Q. // lookup growth for O=C(Nc1ccncc1F)c1cn(CC2CC2)c2ccccc12
A. 108

Q. // lookup growth for C/C(Cc1ccc(Cl)cc1)=C(\c1ccc(OCCN2CCOCC2)cc1)c1ccc(OC(=O)Cc2ccccc2)cc1
A. 102

Q. // lookup growth for CN1CCCCC1C(C)(O)c1ccccc1 (stereo unspecified)
A. 92.9

Q. // lookup growth for COC(=O)[C@@H](C)C[C@H](Cc1cn(C)c2ccccc12)NC(=O)c1csc([C@@H](C[C@H](C(C)C)N(C)C(=O)[C@@H](NC(=O)[C@H]2CCCCN2C)C(C)C)OC(C)=O)n1
A. 7.44

Q. // lookup growth for CC(=O)c1ccc(C(=O)NCC2CCC3(CC2)OOC2(CCCCC2)OO3)cc1
A. 16.4

Q. // lookup growth for CCOC(=O)[C@@H](C)C[C@H](Cc1ccccc1)NC(=O)c1csc([C@@H](C[C@H](C(C)C)N(C)C(=O)[C@H](CC)NC(=O)[C@H]2CCCCN2C)OC(C)=O)n1
A. 20.2

Q. // lookup growth for CC[C@H](C)[C@H](NC(=O)[C@H]1CCCCN1C)C(=O)N(C)[C@H](CC(=O)c1nc(C(=O)N[C@@H](Cc2ccccc2)C[C@H](C)C(=O)O)cs1)C(C)C
A. 77

Q. // lookup growth for O=NNc1ccccn1
A. 90.3

Q. // lookup growth for CCOP(=O)(Cc1ccc(C#N)cc1)OCC
A. 98.5

Q. // lookup growth for N#C[Se]CCN1C(=O)c2ccccc2C1=O
A. 26.4

Attribution: PubChem BioAssay (NCI)
